These measurements were taken from patent US20240166642A1.

assayed-system: TPO (produced in insect cells, RSR Ltd) (Homo sapiens (Human), UniProt P07202)
Sequence (P07202 19-933): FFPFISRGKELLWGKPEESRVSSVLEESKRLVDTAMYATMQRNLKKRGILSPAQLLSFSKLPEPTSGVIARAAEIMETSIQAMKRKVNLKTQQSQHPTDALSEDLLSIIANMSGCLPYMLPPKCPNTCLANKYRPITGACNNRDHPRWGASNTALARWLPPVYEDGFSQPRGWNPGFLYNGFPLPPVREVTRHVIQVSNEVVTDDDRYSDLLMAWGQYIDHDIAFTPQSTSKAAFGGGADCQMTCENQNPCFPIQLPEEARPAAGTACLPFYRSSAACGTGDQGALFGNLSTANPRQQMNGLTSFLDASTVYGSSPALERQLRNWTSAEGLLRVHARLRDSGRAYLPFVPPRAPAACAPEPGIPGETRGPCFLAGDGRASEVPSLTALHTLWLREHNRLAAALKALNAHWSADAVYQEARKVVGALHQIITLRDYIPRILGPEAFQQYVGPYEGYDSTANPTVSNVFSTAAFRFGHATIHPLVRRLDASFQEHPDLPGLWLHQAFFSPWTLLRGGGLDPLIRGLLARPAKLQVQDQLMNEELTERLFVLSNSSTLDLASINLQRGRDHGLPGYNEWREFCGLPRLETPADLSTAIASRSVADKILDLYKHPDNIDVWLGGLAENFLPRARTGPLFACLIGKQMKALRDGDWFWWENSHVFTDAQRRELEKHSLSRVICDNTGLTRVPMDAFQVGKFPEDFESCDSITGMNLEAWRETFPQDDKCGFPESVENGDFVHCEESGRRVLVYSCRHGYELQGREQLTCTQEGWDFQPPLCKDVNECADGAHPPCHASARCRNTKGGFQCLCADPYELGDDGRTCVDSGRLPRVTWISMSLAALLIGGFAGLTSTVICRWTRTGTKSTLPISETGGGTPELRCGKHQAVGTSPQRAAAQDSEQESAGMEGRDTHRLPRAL
procedure-details: TPO activity (IC50), luminol chemiluminescence assay
test-conditions: PBS pH7.4, luminol 100 μM, H2O2 50 μM, chemiluminescence recorded after 15 minutes
metric: IC50 (nM)
One number for each entry, in nM.

Known results for molecules:
O=c1[nH]c(=S)n(Cc2ccccc2[C@H]2C[C@@H](C(F)F)CCN2)c2cc[nH]c12 (single isomer, unassigned) [Example 19a] :: 1760
NC1(c2ccc(Cn3c(=S)[nH]c(=O)c4[nH]ccc43)cc2)CCC1 :: 560
O=c1[nH]c(=S)n(Cc2cccnc2[C@H]2C[C@H](C(F)(F)F)CCN2)c2cc[nH]c12 (single isomer, unassigned) [Example 31a] :: 1700
O=c1[nH]c(=S)n(Cc2cccnc2[C@H]2C[C@@H](C(F)(F)F)CCN2)c2cc[nH]c12 (single isomer, unassigned) [Example 16a] :: 1610

Look at each molecule and report its IC50.
1. O=c1[nH]c(=S)n(Cc2ccccc2C2CCC(F)CN2)c2nc[nH]c12 (stereo not drawn)
2. O=c1[nH]c(=S)n(Cc2ccccc2[C@@H]2C[C@@H](C(F)(F)F)CCN2)c2cc[nH]c12 (stereo in doubt) [Example 17b]
3. O=c1[nH]c(=S)n(Cc2ccccc2[C@@H]2CCCCCN2)c2cc[nH]c12 (single isomer, unassigned) [Example 6b]
4. O=c1[nH]c(=S)n(Cc2ccccc2C2CCCNC2)c2cc[nH]c12 (stereo not drawn)
5. O=c1[nH]c(=S)n(Cc2cccnc2C2CCCCN2)c2cc[nH]c12 (stereo not drawn)
6. O=c1[nH]c(=S)n(Cc2ccccc2[C@H]2C[C@H](C(F)(F)F)CCN2)c2nc[nH]c12 (single isomer, unassigned) [Example 18b]
7. O=c1[nH]c(=S)n(Cc2ccncc2[C@H]2C[C@@H](C(F)(F)F)CCN2)c2cc[nH]c12 (racemic)

result:
[540, 630, 300, 680, 2760, 410, 950]

Look at each molecule and report its IC50.
1. O=c1[nH]c(=S)n(Cc2cccc3c2CNC3)c2cc[nH]c12
2. NC1(c2cccc(Cn3c(=S)[nH]c(=O)c4[nH]ccc43)c2)CCC1
3. O=c1[nH]c(=S)n(Cc2ccccc2C2CC(F)(F)CCN2)c2nc[nH]c12 (stereo not drawn)

result:
840
670
540
